test system: SF-295; experiment: NCI tumour cell line growth inhibition, 48 h
Active and inactive are the calls of the source. No stated cut-off is given here; in the data, active = GI50 up to about 1.1 µM and inactive = higher.
Measured GI50 accompanies every entry in the list below.

Below: 5 compounds and their reported GI50.
Data request, read-out GI50, for C[C@@]12C[C@@H](c3ccccc3O1)N1CCCSC1=N2 > 100 µM (inactive)

For the compound C=CC(OC(C)=O)c1ccc(OC(C)=O)cc1 (configuration not stated) , what GI50 is on record? 7.62 µM (inactive)

Which GI50 value belongs to O=C1Oc2ccccc2C(=O)/C1=C/N1C(=O)/C(=C/c2ccc3c(c2)OCO3)SC1=S ? 22.9 µM (inactive)

Dear colleague, I am looking for the recorded GI50 of the following compound: CSc1ccc(C(=C=C=C(c2ccc(SC)s2)c2ccc(SC)s2)c2ccc(SC)s2)s1 > 10 µM (inactive)

Could you share which GI50 value was measured for O=C(c1ccccc1)C1(Br)S(=O)(=O)OCCOS1(=O)=O ? > 100 µM (inactive)

---
Find the recorded GI50 belonging to COc1c(-c2ccc3c(c2)OCO3)oc2cc(O)cc(O)c2c1=O and report it. 34.4 µM (inactive)

Need GI50 of CN(CC(=O)O)c1ncc2c(n1)-c1ccccc1CC2 , thanks. > 100 µM (inactive)

* * *

tested on: SF-539; test: NCI tumour cell line growth inhibition, 48 h
Activity calls are given as the source filed them. Rule as the data show it: active = GI50 up to about 1.1 µM and inactive = higher.
value-kind: GI50

Look up GI50: COc1ccc(OC)c(C[P+](c2ccccc2)(c2ccccc2)c2ccccc2)c1 3.82 µM (inactive)

Which GI50 is listed for O=C(CCCl)NN=C1NCCCCN1 ? > 100 µM (inactive)

Request the reported GI50 associated with CCCN1CCC(=O)N(CCC(F)(F)C(F)(F)C(F)(F)C(F)(F)C(F)(F)C(F)(F)F)C1=S > 100 µM (inactive)

New cases:
So what does the record say about GI50 for CC(C)N(O)C(=N)c1ccccc1 ? > 100 µM (inactive)

Entry under review: CN1CCN(c2c(Cl)cc(Cl)c3[nH]c4ccccc4c(=O)c23)CC1 . Reported GI50? 3.94 µM (inactive)

So what does the record say about GI50 for O=P(c1ccccc1)(c1ccccc1)C1CC=C2CCCCCC2C1 (stereo not drawn) ? > 10 µM (inactive)

Suppose we examine the compound CN1C(=O)c2ccccc2NC(=O)c2cnn(C)c21 ; what GI50 value has been reported? > 100 µM (inactive)

If you can, please state the reported GI50 value of CC(=O)OCC1OC(n2cnc(C(N)=S)c2N)C(OC(C)=O)C1OC(C)=O (stereo not drawn) . > 100 µM (inactive)

* * *

test system: SW-620; assay: NCI tumour cell line growth inhibition, 48 h
Activity calls are given as the source filed them. No stated cut-off is given here; in the data, active = GI50 up to about 1.1 µM and inactive = higher.
Select the correct class. Options are label 1 for active, label 0 for inactive and nothing else.

// param item: COc1ccc(-n2cnnc2-c2nsc3ccccc23)cc1 ; yields the recorded call label 0

Please let me know the test result on file for O=c1oc2ccccc2cc1-c1nc2ccc([N+](=O)[O-])cc2o1 . label 0

Test call for this compound, please: Oc1cc(-c2cccc(OC(F)(F)F)c2)nc2ccc(N3CCCC3)cc12 label 1

Per the records of this test, what outcome belongs to COc1cc(C(=O)NC(CCN)(c2ccccc2)c2ccccc2)cc(OC)c1OC ? label 0

// outcome(item) with item = CC(C)(CN1CCCCC1)C(=O)/C=C/c1ccc(/C=C/C(=O)C(C)(C)CN2CCCCC2)cc1 label 1

Outcome logged for CCn1cc(C(=O)O)c(=O)c2ccc(C)nc21 [NALIDIXIC ACID] in this assay: label 0

Returns: the outcome recorded for CN(C)C(=N/O)/C(=N\O)N(C)C in this assay. label 0

Could you kindly confirm the outcome this assay logged for CN1CCN(c2c(Cl)cc(Cl)c3[nH]c4ccccc4c(=O)c23)CC1 ? label 0

Can you look up the reported call for O=c1[nH]c(=S)[nH]c2c(C3OC(CO)C(O)C3O)nsc12 (centres undefined) for me? label 0

// param item: CCOC(=O)/C(C)=C\[C@@]1(C)O[C@@H](C)[C@@](C)(OC(C)=O)[C@@H]1OC(C)=O ; yields the recorded call label 0

Entry O=C(Cc1ccc2ccccc2c1)NCc1ccc(C(=O)NCCc2ccccc2)cc1 : call = ? label 0

What call does the record list for O=C(NCCc1ccccc1)c1c(O)nc2ccccc2c1O ? label 0

// return assay outcome for O=C1CC(c2cccc([N+](=O)[O-])c2)C2(C(=O)NC(=O)NC2=O)C(c2cccc([N+](=O)[O-])c2)C1 (centres undefined) label 0

How was N#Cc1c2ccccc2c(Cc2ccc3c(c2)OCCOCCOCCOCCOCCO3)c2ccccc12 classified in this test? label 0
